# Protocol text: Mouse pharmacokinetics
# Format: in vivo, ICR mice
# Measurement conditions: ICR, mouse, plasma, iv, 1 mg/kg, Mouse i.v. 1 mpk
So basically: clearance at 5 mL/min/kg or higher? That is condition met. Lower than 5 mL/min/kg? That is condition not met.

INSERT INTO results (compound, class_assignment) VALUES
  ('N#Cc1ccc(O[C@H]2CC[C@H](NC(=O)c3ccc(N4CCC(CN5CCc6c(ccc7c(C8CCC(=O)NC8=O)noc67)C5)CC4)nn3)CC2)cc1Cl (some centres unmarked)', 'condition met'),
  ('N#Cc1ccc(O[C@H]2CC[C@H](NC(=O)c3cnc(N4CCC(CN5Cc6ccc7c(C8CCC(=O)NC8=O)noc7c6C5)CC4)nc3)CC2)cc1Cl (some centres unmarked)', 'condition met'),
  ('N#Cc1ccc(O[C@H]2CC[C@H](NC(=O)c3ccc(N4CCN(CC5Cc6ccc7c(C8CCC(=O)NC8=O)noc7c6C5)CC4)nn3)CC2)cc1Cl (some centres unmarked)', 'condition not met'),
  ('N#Cc1ccc(O[C@H]2CC[C@H](NC(=O)c3ccc(N4CCC(CN5CCc6ccc7c(C8CCC(=O)NC8=O)noc7c6C5)CC4)nn3)CC2)cc1Cl (some centres unmarked)', 'condition not met'),
  ('N#Cc1ccc(O[C@H]2CC[C@H](NC(=O)c3ccc(N4CCC(CN5Cc6ccc7c(C8CCC(=O)NC8=O)noc7c6C5)CC4)nn3)CC2)cc1Cl (some centres unmarked)', 'condition not met');
